Data provenance: patent US10463644B2

# System: cancer stem cells
# MEASUREMENT PROTOCOL: Survival rate of cancer stem cells after test compound is added (flow cytometry, Annexin V-FITC/PI, clinical specimen)
# Type: cell-based, patient
# RUN CONDITIONS: Homo sapiens, 18 h, Skin cancer; 20.0 μM
Rule for this label: 1 (yes) means viability at 20 µM is less than 70%; 0 (no) means viability at 20 µM is at least 70%.

Worked set:
{"COMPOUND": "C=C1C(=O)O[C@H]2[C@H]1CCC(C)=C1CC[C@@](C)(OC(=O)CCCc3cn(CCCCCCO)nn3)[C@@H]12 [Compound 21]", "QUALITATIVE LABEL": "1 (yes)"}
{"COMPOUND": "CCOC(=O)[C@@H]1CCCN1C[C@@H]1C(=O)O[C@H]2[C@H]1CCC1(CC1)[C@@H]1CCC3(CC3)[C@H]21 [Compound 29]", "QUALITATIVE LABEL": "0 (no)"}
{"COMPOUND": "CC1=C2CC[C@@](C)(O)[C@@H]2[C@H]2OC(=O)[C@@H](CN(C)C)[C@@H]2CC1 [Compound 23]", "QUALITATIVE LABEL": "0 (no)"}
{"COMPOUND": "C=C1C(=O)O[C@@H]2[C@@H]3[C@@H](CCC34CC4)C3(CC[C@@H]12)CC3 [Compound 26]", "QUALITATIVE LABEL": "0 (no)"}
{"COMPOUND": "CN(C)C[C@@H]1C(=O)O[C@H]2[C@H]1CCC1(CC1)[C@@H]1CCC3(CC3)[C@H]21 [Compound 27]", "QUALITATIVE LABEL": "0 (no)"}

Prompt: Is viability at 20 µM of C=C1CC[C@H]2C(=C)CC[C@H]3C(=C)C(=O)O[C@@H]3[C@@H]12 [Compound 25] strictly below 70%?
Completion: 1 (yes)

----------
# Tested on: cancer cells
# MEASUREMENT PROTOCOL: Survival rate of cancer cells after test compound is added (flow cytometry, Annexin V-FITC/PI, clinical specimen)
# Assay type: cell-based, patient
# RUN CONDITIONS: Homo sapiens, 18 h, Gastric cancer; 10.0 μM; read-out: Survival rate (%) All cells (Stem cells and ordinary cells)
RESULT TYPE: viability at 10 µM (%)
Respond numerically; units are % and should not be typed.

Record excerpt, results attached:
{"COMPOUND": "C=C1C(=O)O[C@@H]2[C@H]3C(C)=CC[C@@]34O[C@@]4(C)CC[C@@H]12 [Compound 50]", "SYSTEM": "cancer cells", "viability at 10 µM (%)": 54}
{"COMPOUND": "CN(C)C[C@@H]1C(=O)O[C@H]2[C@H]1CCC1(CC1)[C@@H]1CCC3(CC3)[C@H]21 [Compound 35]", "SYSTEM": "cancer cells", "viability at 10 µM (%)": 92}
{"COMPOUND": "CCOC(=O)[C@@H]1CCCN1C[C@@H]1C(=O)O[C@H]2[C@H]1CCC1(CC1)[C@@H]1CCC3(CC3)[C@H]21 [Compound 29]", "SYSTEM": "cancer cells", "viability at 10 µM (%)": 88}

Prompt: Field request: viability at 10 µM | item: C=C1C(=O)O[C@@H]2[C@@H]3[C@@H](CC[C@@]3(C)O)[C@](C)(O)CC[C@@H]12 [Compound 49]
Completion: 92

----------
# Tested on: cancer stem cells
# MEASUREMENT PROTOCOL: Survival rate of cancer stem cells after test compound is added (flow cytometry, Annexin V-FITC/PI, clinical specimen)
# Type: cell-based, patient
# RUN CONDITIONS: Homo sapiens, 18 h, Malignant melanoma; 10.0 μM
Rule for this label: yes (1) means viability at 10 µM is less than 80%; no (0) means viability at 10 µM is at least 80%.

{"GIVEN SMILES": "[2H][C@@]1(CN(C)C)C(=O)O[C@@H]2[C@@H]3[C@@H](CCC34CC4)C3(CC[C@H]21)CC3", "QUALITATIVE LABEL": "no (0)"}
{"GIVEN SMILES": "C=C1C(=O)O[C@H]2[C@H]1CCC(C)=C1CC[C@@](C)(OC(=O)CCCc3cn(CCCCCCO)nn3)[C@@H]12", "QUALITATIVE LABEL": "yes (1)"}

Now examine the next entry.
Prompt: Is viability at 10 µM of `C=C1CC[C@H]2C(=C)CC[C@H]3C(=C)C(=O)O[C@@H]3[C@@H]12` strictly below 80%?
Completion: yes (1)

----------
# Test system: cancer stem cells
# MEASUREMENT PROTOCOL: Survival rate of cancer stem cells after test compound is added (flow cytometry, Annexin V-FITC/PI, clinical specimen)
# Type: cell-based, patient
# RUN CONDITIONS: Homo sapiens, 18 h, Brain glioma; 20.0 μM
RESULT TYPE: viability at 20 µM (%)
Respond numerically; units are % and should not be typed.

Record excerpt, results attached:
{"COMPOUND": "C=C1C(=O)O[C@@H]2[C@@H]3[C@@H](CC[C@@]3(C)O)C(=C)CC[C@@H]12", "UNIT": "%", "viability at 20 µM": 43}
{"COMPOUND": "C=C1C(=O)O[C@H]2[C@H]1CC[C@@](C)(OC)C1CC[C@@](C)(O)[C@@H]12 (some centres unmarked)", "UNIT": "%", "viability at 20 µM": 79}
{"COMPOUND": "CC1=C2CC[C@@](C)(O)[C@@H]2[C@H]2OC(=O)[C@@H](CN(C)C)[C@@H]2CC1", "UNIT": "%", "viability at 20 µM": 76}

Prompt: Reported viability at 20 µM for cancer stem cells, given `C=C1C(=O)O[C@H]2[C@H]1CCC(C)=C1CC[C@@](C)(OC(=O)CCCc3cn(CCCCCCO)nn3)[C@@H]12` ?
Completion: 53

Prompt: Reported viability at 20 µM for cancer stem cells, given `C=C1C(=O)O[C@@H]2[C@@H]3[C@@H](CCC34CC4)C3(CC[C@@H]12)CC3` ?
Completion: 76

Prompt: Reported viability at 20 µM for cancer stem cells, given `C=C1CC[C@H]2C(=C)CC[C@H]3C(=C)C(=O)O[C@@H]3[C@@H]12` ?
Completion: 47

----------
# System: cancer cells
# MEASUREMENT PROTOCOL: Survival rate of cancer cells after test compound is added (flow cytometry, Annexin V-FITC/PI, clinical specimen)
# Assay type: cell-based, patient
# RUN CONDITIONS: Homo sapiens, 18 h, Breast cancer; 20.0 μM; read-out: Survival rate (%) All cells (Stem cells and ordinary cells)
Form field: viability at 20 µM (one value per entry).
Respond numerically; units are % and should not be typed.

Record excerpt, results attached:
{"COMPOUND": "C=C1C(=O)O[C@@H]2[C@@H]3[C@@H](CCC34CC4)C3(CC[C@@H]12)CC3 [Compound 26]", "UNIT": "%", "viability at 20 µM": 86}
{"COMPOUND": "C=C1C(=O)O[C@H]2[C@H]1CCC(C)=C1CC[C@@](C)(OC(=O)CCCc3cn(CCCCCCO)nn3)[C@@H]12 [Compound 21]", "UNIT": "%", "viability at 20 µM": 66}
{"COMPOUND": "C=C1C(=O)O[C@@H]2[C@@H]3[C@@H](CC[C@@]3(C)O)C(=C)CC[C@@H]12 [Compound 48]", "UNIT": "%", "viability at 20 µM": 58}
{"COMPOUND": "C=C1CC[C@H]2C(=C)CC[C@H]3C(=C)C(=O)O[C@@H]3[C@@H]12 [Compound 25]", "UNIT": "%", "viability at 20 µM": 65}
{"COMPOUND": "CC1=C2CC[C@@](C)(O)[C@@H]2[C@H]2OC(=O)[C@@H](CN(C)C)[C@@H]2CC1 [Compound 23]", "UNIT": "%", "viability at 20 µM": 86}

Next up:
Prompt: Reported viability at 20 µM for cancer cells, given C=C1C(=O)O[C@@H]2[C@H]3C(C)=CC[C@@]34O[C@@]4(C)CC[C@@H]12 [Compound 50] ?
Completion: 65

----------
# System: cancer stem cells
# MEASUREMENT PROTOCOL: Survival rate of cancer stem cells after test compound is added (flow cytometry, Annexin V-FITC/PI, clinical specimen)
# Assay type: cell-based, patient
# RUN CONDITIONS: Homo sapiens, 18 h, Colon adenocarcinoma; 10.0 μM
Rule for this label: Criterion met means viability at 10 µM is less than 60%; Criterion not met means viability at 10 µM is at least 60%.

Worked set:
{"COMPOUND": "C=C1C(=O)O[C@@H]2[C@H]3C(C)=CC[C@@]34O[C@@]4(C)CC[C@@H]12 [Compound 50]", "QUALITATIVE LABEL": "Criterion met"}
{"COMPOUND": "CN(C)C[C@@H]1C(=O)O[C@H]2[C@H]1CCC1(CC1)[C@@H]1CCC3(CC3)[C@H]21 [Compound 27]", "QUALITATIVE LABEL": "Criterion not met"}
{"COMPOUND": "C=C1C(=O)O[C@H]2[C@H]1CCC(C)=C1CC[C@@](C)(OC(=O)CCCc3cn(CCCCCCO)nn3)[C@@H]12 [Compound 21]", "QUALITATIVE LABEL": "Criterion met"}
{"COMPOUND": "C=C1CC[C@H]2C(=C)CC[C@H]3C(=C)C(=O)O[C@@H]3[C@@H]12 [Compound 25]", "QUALITATIVE LABEL": "Criterion met"}

Prompt: Is viability at 10 µM of CC1=C2CC[C@@](C)(O)[C@@H]2[C@H]2OC(=O)[C@@H](CN(C)C)[C@@H]2CC1 [Compound 23] strictly below 60%?
Completion: Criterion not met

Prompt: Is viability at 10 µM of C=C1C(=O)O[C@@H]2[C@@H]3[C@@H](CC[C@@]3(C)O)C(=C)CC[C@@H]12 [Compound 48] strictly below 60%?
Completion: Criterion met

Prompt: Is viability at 10 µM of C=C1C(=O)O[C@@H]2[C@@H]3[C@@H](CCC34CC4)C3(CC[C@@H]12)CC3 [Compound 26] strictly below 60%?
Completion: Criterion not met
